# Test: Lipophilicity, log D of the compound at pH 7.4 by chromatographic method
# Type: physicochemical
# Condition set: buffer
// classify: if (chromatographic logD < 4) MET else NOT MET

Check out these entries, answers already filled in.
compound="CN(C)CC[S+]([O-])CCCCN=C=S (stereo not given)" discrete_label=MET
compound=CN1CCC(SC(=S)NCCCCNC(=O)Nc2ccc3c(c2)OCCO3)CC1 discrete_label=MET
compound=O=C(NCCCCN=C=S)Nc1ccc2nccnc2c1 discrete_label=MET
compound="C[S+]([O-])CCCCCN=C=S (stereo not given)" discrete_label=MET
compound="C[S+]([O-])CCCCNC(=S)SC[C@H](NC(=O)CC[C@H](N)C(=O)O)C(=O)NCC(=O)O (stereo not given in full)" discrete_label=MET

In: Bench note: check whether C[S+]([O-])CCCCNC(=S)SCCSC(=S)NCCCC[S+](C)[O-] (stereo not given) shows chromatographic logD below 4
Out: MET

In: Bench note: check whether O=C(NCCCCN=C=S)NCc1ccccc1 shows chromatographic logD below 4
Out: NOT MET

In: Bench note: check whether CS(=O)(=O)N1CCC(CN=C=S)C1 (stereo not given) shows chromatographic logD below 4
Out: MET

In: Bench note: check whether CC(C)(C)OC(=O)N1CCC(SC(=S)NCCCCNC(=O)Nc2ccncc2)CC1 shows chromatographic logD below 4
Out: NOT MET

In: Bench note: check whether CNC(=O)NCCCCNC(=S)SC1CCN(C(=O)OC(C)(C)C)CC1 shows chromatographic logD below 4
Out: NOT MET

In: Bench note: check whether CC(=O)N[C@@H](CSC(=S)NCCCC[S+](C)[O-])C(=O)O (stereo not given in full) shows chromatographic logD below 4
Out: MET

In: Bench note: check whether O=S(=O)(CCCCN=C=S)c1ccccc1 shows chromatographic logD below 4
Out: NOT MET

In: Bench note: check whether CC(=O)NCCSC(=S)NCCCC[S+](C)[O-] (stereo not given) shows chromatographic logD below 4
Out: MET

In: Bench note: check whether CCNC(=O)N1CCC(SC(=S)NCCCCNC(=O)NCc2ccccc2)CC1 shows chromatographic logD below 4
Out: MET

In: Bench note: check whether CC(=O)CCCCN=C=S shows chromatographic logD below 4
Out: NOT MET

In: Bench note: check whether O=C(NCCCCN=C=S)c1ccno1 shows chromatographic logD below 4
Out: MET

In: Bench note: check whether CC(C)(C)OC(=O)N1CCC(SC(=S)NCCCCNC(=O)Nc2ccc3nccnc3c2)CC1 shows chromatographic logD below 4
Out: NOT MET
